These entries and their values trace back to patent US20220267352A1.

system: p-p70 S6 Kinase (Thr389) in MCF-7 cells; test: AlphaLISA Ultra pS6K1 assay; format: cell-based; settings: Homo sapiens, 1.5 h; MCF7 cells, 90 min
pIC50: −log10 of the molar value.

[
  {
    "molecule": "COCCOCCO[C@H]1C[C@@H]2CC[C@@H](C)[C@@](O)(O2)C(=O)C(=O)N2CCCC[C@H]2C(=O)O[C@H]([C@H](C)C[C@@H]2CC[C@@H](OC(F)F)[C@H](OC)C2)CC(=O)[C@H](C)/C=C(\\C)[C@@H](O)[C@@H](OC)C(=O)[C@H](C)C[C@H](C)/C=C/C=C/C=C/1C",
    "pIC50": "8.00 to 9.00"
  },
  {
    "molecule": "CO[C@@H]1C[C@H](C[C@@H](C)[C@@H]2CC(=O)[C@H](C)/C=C(\\C)[C@@H](O)[C@@H](OC)C(=O)[C@H](C)C[C@H](C)/C=C/C=C/C=C(\\C)[C@H](OCCOC3COC3)C[C@@H]3CC[C@@H](C)[C@@](O)(O3)C(=O)C(=O)N3CCCC[C@H]3C(=O)O2)CC[C@H]1OC(=O)N(C)CCN1CCOCC1",
    "pIC50": "8.00 to 9.00"
  },
  {
    "molecule": "CO[C@@H]1/C(C)=C/[C@@H](C)C(=O)C[C@@H]([C@H](C)C[C@@H]2CC[C@@H](OC)[C@H](OC)C2)OC(=O)[C@@H]2CCCCN2C(=O)C(=O)[C@]2(O)O[C@@H](CC[C@H]2C)CC(OCCOCCN(C)C)/C(C)=C/C=C/C=C/[C@@H](C)C[C@@H](C)C(=O)[C@@H]1OC (stereo partly drawn)",
    "pIC50": "6.00 to 7.00"
  }
]

====

Test system: p-p70 S6 Kinase (Thr389) in MCF-7 cells
Experiment: AlphaLISA Ultra pS6K1 assay
Type: cell-based
Details: Homo sapiens, 1.5 h; MCF7 cells, 90 min
Protocol: Example 55: AlphaLISA Ultra pS6K1 Assay Assay Protocol: • 1. Seed MCF-7 cells in Corning 3701 plate and incubate for 20˜24 hour. 12,000˜16,000 cells will be seeded in 36 μL medium per well. • 2. Change the culture medium with fresh medium and incubate for another 2 hours. • 3. Add 12 μL (4×) compounds into the cell plate by HAMILTON. Final DMSO concentration is 0.5%. Incubate for 90 minutes. • 4. Aspirate 38 μL by HAMILTON, 10 μL rest per well. • 5. […] Count the plate by EnSpire Multimode Plate Reader
measurement kind: IC50

[
  {
    "item smiles": "COCCO[C@@H]1CC[C@@H](C[C@@H](C)[C@@H]2CC(=O)[C@H](C)/C=C(\\C)[C@@H](OC)[C@@H](OC)C(=O)[C@H](C)C[C@H](C)/C=C/C=C/C=C(\\C)[C@H](OCCOC3COC3)C[C@@H]3CC[C@@H](C)[C@@](O)(O3)C(=O)C(=O)N3CCCC[C@H]3C(=O)O2)C[C@H]1OC",
    "measured": "10 to 100 nM"
  },
  {
    "item smiles": "CO[C@@H]1/C(C)=C/[C@@H](C)C(=O)C[C@@H]([C@H](C)C[C@@H]2CC[C@@H](OCCCO)[C@H](OC)C2)OC(=O)[C@@H]2CCCCN2C(=O)C(=O)[C@]2(O)O[C@@H](CC[C@H]2C)C[C@@H](OCCOC2COC2)/C(C)=C/C=C/C=C/[C@@H](C)C[C@@H](C)C(=O)[C@@H]1OC",
    "measured": "1 to 10 nM"
  },
  {
    "item smiles": "CO[C@@H]1C[C@H](C[C@@H](C)[C@@H]2CC(=O)[C@H](C)/C=C(\\C)[C@@H](O)[C@@H](OC)C(=O)[C@H](C)C[C@H](C)/C=C/C=C/C=C(\\C)[C@@H](OCCOC3COC3)C[C@@H]3CC[C@@H](C)[C@@](O)(O3)C(=O)C(=O)N3CCCC[C@H]3C(=O)O2)CC[C@H]1OCCCN1CCOCC1",
    "measured": "< 1 nM"
  }
]

====

system: mTORC1 over mTORC2; test: mTORC1 over mTORC2 selectivity by comparing pS6K1 and pAKT IC50; assay type: cell-based; details: by comparing pS6K1 and pAKT IC50, 90 min
measurement kind: mTORC1 selective @ 90 min

[
  {
    "compound": "COCCO[C@@H]1CC[C@@H](C[C@@H](C)[C@@H]2CC(=O)[C@H](C)/C=C(\\C)[C@@H](O)[C@@H](OC)C(=O)[C@H](C)C[C@H](C)/C=C/C=C/C=C(\\C)C(OC[C@@H]3COCCO3)C[C@@H]3CC[C@@H](C)[C@@](O)(O3)C(=O)C(=O)N3CCCC[C@H]3C(=O)O2)C[C@H]1OC (some centres unmarked)",
    "measurement kind": "mTORC1 selective @ 90 min",
    "measured": "Yes"
  },
  {
    "compound": "COCCO[C@@H]1CC[C@@H](C[C@@H](C)[C@@H]2CC(=O)[C@H](C)/C=C(\\C)[C@@H](O)[C@@H](OC)C(=O)[C@H](C)C[C@H](C)/C=C/C=C/C=C(\\C)C(OC[C@H]3COCCO3)C[C@@H]3CC[C@@H](C)[C@@](O)(O3)C(=O)C(=O)N3CCCC[C@H]3C(=O)O2)C[C@H]1OC (some centres unmarked)",
    "measurement kind": "mTORC1 selective @ 90 min",
    "measured": "Yes"
  }
]

====

test system: mTORC1 over mTORC2; experiment: mTORC1 over mTORC2 selectivity by comparing pS6K1 and pAKT IC50; type: cell-based; settings: by comparing pS6K1 and pAKT IC50, 90 min

[
  {
    "compound": "COCCOCCO[C@@H]1C[C@@H]2CC[C@@H](C)[C@@](O)(O2)C(=O)C(=O)N2CCCC[C@H]2C(=O)O[C@H]([C@H](C)C[C@@H]2CC[C@@H](OCCO)[C@H](OC)C2)CC(=O)[C@H](C)/C=C(\\C)[C@@H](OC)[C@@H](OC)C(=O)[C@H](C)C[C@H](C)/C=C/C=C/C=C/1C",
    "mTORC1 selective @ 90 min": "Yes"
  },
  {
    "compound": "CO[C@@H]1C[C@H](C[C@@H](C)[C@@H]2CC(=O)[C@H](C)/C=C(\\C)[C@@H](O)[C@@H](OC)C(=O)[C@H](C)C[C@H](C)/C=C/C=C/C=C(\\C)C(OCC3COCCO3)C[C@@H]3CC[C@@H](C)[C@@](O)(O3)C(=O)C(=O)N3CCCC[C@H]3C(=O)O2)CC[C@H]1OC(=O)N(C)CCN1CCOCC1 (stereo partly drawn)",
    "mTORC1 selective @ 90 min": "Yes"
  },
  {
    "compound": "CO[C@@H]1C[C@H](C[C@@H](C)[C@@H]2CC(=O)[C@H](C)/C=C(\\C)[C@@H](O)[C@@H](OC)C(=O)[C@H](C)C[C@H](C)/C=C/C=C/C=C(\\C)C(OCCOC3COC3)C[C@@H]3CC[C@@H](C)[C@@](O)(O3)C(=O)C(=O)N3CCCC[C@H]3C(=O)O2)CC[C@H]1OC(=O)NCCN1CCOCC1 (stereo partly drawn)",
    "mTORC1 selective @ 90 min": "Yes"
  }
]

====

The following compounds are listed with their measured pIC50 values.
tested on: p-p70 S6 Kinase (Thr389) in MCF-7 cells; test: AlphaLISA Ultra pS6K1 assay; format: cell-based; details: Homo sapiens, 1.5 h; MCF7 cells, 90 min
pIC50: −log10 of the molar value.
measurement kind: pIC50

[
  {
    "compound": "CO[C@@H]1C[C@H](C[C@@H](C)[C@@H]2CC(=O)[C@H](C)/C=C(\\C)[C@@H](O)[C@@H](OC)C(=O)[C@H](C)C[C@H](C)/C=C/C=C/C=C(\\C)[C@H](OCCOC3COC3)C[C@@H]3CC[C@@H](C)[C@@](O)(O3)C(=O)C(=O)N3CCCC[C@H]3C(=O)O2)CC[C@H]1OCCCN1C[C@@H](C)O[C@@H](C)C1",
    "measurement kind": "pIC50",
    "measured": "8.00 to 9.00"
  },
  {
    "compound": "CO[C@@H]1/C(C)=C/[C@@H](C)C(=O)C[C@@H]([C@H](C)C[C@@H]2CC[C@@H](OC)[C@H](OC)C2)OC(=O)[C@@H]2CCCCN2C(=O)C(=O)[C@]2(O)O[C@@H](CC[C@H]2C)C[C@H](OCC2COCCO2)/C(C)=C/C=C/C=C/[C@@H](C)C[C@@H](C)C(=O)[C@@H]1OC (stereo partly shown)",
    "measurement kind": "pIC50",
    "measured": "≤ 6.00"
  },
  {
    "compound": "COCCO[C@@H]1CC[C@@H](C[C@@H](C)[C@@H]2CC(=O)[C@H](C)/C=C(\\C)[C@@H](O)[C@@H](OC)C(=O)[C@H](C)C[C@H](C)/C=C/C=C/C=C(\\C)[C@@H](OC[C@@H]3COCCO3)C[C@@H]3CC[C@@H](C)[C@@](O)(O3)C(=O)C(=O)N3CCCC[C@H]3C(=O)O2)C[C@H]1OC",
    "measurement kind": "pIC50",
    "measured": "8.00 to 9.00"
  },
  {
    "compound": "COCCOCCO[C@@H]1C[C@@H]2CC[C@@H](C)[C@@](O)(O2)C(=O)C(=O)N2CCCC[C@H]2C(=O)O[C@H]([C@H](C)C[C@@H]2CC[C@@H](OC)[C@H](OC)C2)CC(=O)[C@H](C)/C=C(\\C)[C@@H](OC)[C@@H](OC)C(=O)[C@H](C)C[C@H](C)/C=C/C=C/C=C/1C",
    "measurement kind": "pIC50",
    "measured": "7.00 to 8.00"
  },
  {
    "compound": "COCCO[C@@H]1CC[C@@H](C[C@@H](C)[C@@H]2CC(=O)[C@H](C)/C=C(\\C)[C@@H](OC)[C@@H](OC)C(=O)[C@H](C)C[C@H](C)/C=C/C=C/C=C(\\C)[C@@H](OCCOC3COC3)C[C@@H]3CC[C@@H](C)[C@@](O)(O3)C(=O)C(=O)N3CCCC[C@H]3C(=O)O2)C[C@H]1OC",
    "measurement kind": "pIC50",
    "measured": "≤ 6.00"
  },
  {
    "compound": "COCCO[C@@H]1CC[C@@H](C[C@@H](C)[C@@H]2CC(=O)[C@H](C)/C=C(\\C)[C@@H](O)[C@@H](OC)C(=O)[C@H](C)C[C@H](C)/C=C/C=C/C=C(\\C)C(OC[C@@H]3COCCO3)C[C@@H]3CC[C@@H](C)[C@@](O)(O3)C(=O)C(=O)N3CCCC[C@H]3C(=O)O2)C[C@H]1OC (stereo partly shown)",
    "measurement kind": "pIC50",
    "measured": "> 9.00"
  },
  {
    "compound": "CO[C@@H]1C[C@H](C[C@@H](C)[C@@H]2CC(=O)[C@H](C)/C=C(\\C)[C@@H](O)[C@@H](OC)C(=O)[C@H](C)C[C@H](C)/C=C/C=C/C=C(\\C)C(OCCOC3COC3)C[C@@H]3CC[C@@H](C)[C@@](O)(O3)C(=O)C(=O)N3CCCC[C@H]3C(=O)O2)CC[C@H]1OC(=O)NCCN1CCOCC1 (stereo partly shown)",
    "measurement kind": "pIC50",
    "measured": "> 9.00"
  }
]
